# Percent Effect listing for each entry below
- TESTED_TARGET: Chromo domain-containing protein 1 (Saccharomyces cerevisiae (strain ATCC 204508 / S288c) (Baker's yeast)) (UniProt P32657)
- Sequence (P32657 whole entry, the tested form may be a part): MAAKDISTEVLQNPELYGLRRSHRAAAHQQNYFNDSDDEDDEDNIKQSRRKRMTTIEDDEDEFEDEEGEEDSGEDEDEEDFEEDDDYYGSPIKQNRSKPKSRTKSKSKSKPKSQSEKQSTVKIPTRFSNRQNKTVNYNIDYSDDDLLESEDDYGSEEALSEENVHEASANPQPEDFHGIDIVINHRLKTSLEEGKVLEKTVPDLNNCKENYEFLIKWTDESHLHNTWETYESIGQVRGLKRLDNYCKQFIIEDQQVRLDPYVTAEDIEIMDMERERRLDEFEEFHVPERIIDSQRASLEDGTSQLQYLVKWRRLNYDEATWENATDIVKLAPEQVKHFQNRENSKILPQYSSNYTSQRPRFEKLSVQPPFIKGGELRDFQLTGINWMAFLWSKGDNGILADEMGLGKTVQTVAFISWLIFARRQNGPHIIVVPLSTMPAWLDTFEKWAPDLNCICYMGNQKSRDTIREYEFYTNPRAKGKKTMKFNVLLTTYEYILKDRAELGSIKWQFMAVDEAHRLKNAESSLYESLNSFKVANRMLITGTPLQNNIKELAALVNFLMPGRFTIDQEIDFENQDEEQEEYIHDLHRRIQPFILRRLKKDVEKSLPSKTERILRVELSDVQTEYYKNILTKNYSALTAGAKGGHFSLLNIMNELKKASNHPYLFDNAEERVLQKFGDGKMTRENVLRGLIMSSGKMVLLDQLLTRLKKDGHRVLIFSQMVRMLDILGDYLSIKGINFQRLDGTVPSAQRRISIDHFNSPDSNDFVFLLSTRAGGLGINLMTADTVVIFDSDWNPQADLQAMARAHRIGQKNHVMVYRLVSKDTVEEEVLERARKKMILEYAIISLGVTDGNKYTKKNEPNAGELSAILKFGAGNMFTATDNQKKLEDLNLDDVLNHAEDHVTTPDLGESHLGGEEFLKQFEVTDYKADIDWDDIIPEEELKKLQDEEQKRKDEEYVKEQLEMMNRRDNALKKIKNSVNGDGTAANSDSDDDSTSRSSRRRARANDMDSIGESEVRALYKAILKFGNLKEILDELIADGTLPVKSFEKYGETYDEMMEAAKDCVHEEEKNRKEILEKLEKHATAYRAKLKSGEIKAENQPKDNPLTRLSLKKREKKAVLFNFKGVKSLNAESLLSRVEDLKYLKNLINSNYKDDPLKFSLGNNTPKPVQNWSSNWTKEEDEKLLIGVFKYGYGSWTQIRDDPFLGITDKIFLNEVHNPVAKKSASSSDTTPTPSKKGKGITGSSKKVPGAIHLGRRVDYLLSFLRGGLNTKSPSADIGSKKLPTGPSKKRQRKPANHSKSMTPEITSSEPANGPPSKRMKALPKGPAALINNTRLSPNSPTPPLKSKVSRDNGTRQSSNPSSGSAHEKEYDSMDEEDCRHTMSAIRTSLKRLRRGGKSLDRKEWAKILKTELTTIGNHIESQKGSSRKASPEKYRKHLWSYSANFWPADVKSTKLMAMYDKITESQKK
- ASSAY_DETAILS: ScCHD-1 Enzyme Inhibition Assay
- Assay type: functional
- Set-up: scale not given: in the data most compounds retested in dose-response had high values
- CONDITION_PARAMETERS: 30 µM
Form entry: value (%) — number only.

Worked examples, 5 compounds total:
COMPOUND: Cc1noc([C@H]2C[C@H]3OCC[C@H]3N(S(=O)(=O)C3CC3)C2)n1
Percent Effect, %: -0.433
//
COMPOUND: Cc1cc(CN(C)C(=O)C2CCS(=O)(=O)C2)no1 (centres undefined)
Percent Effect, %: -8.16
//
COMPOUND: Cc1nc(CN(C)C2CCN(CC(=O)NC3CCOCC3)C2)no1 (centres undefined)
Percent Effect, %: -5.55
//
COMPOUND: CSCC(C)(O)CNC(=O)c1ccc(Br)cc1C (centres undefined)
Percent Effect, %: 0.55
//
COMPOUND: CC(C)COC(C)C(=O)NCc1ccc(N(C)C)cc1 (centres undefined)
Percent Effect, %: -26.1

Percent Effect measured on CCc1nc2n(n1)CC(NCc1nc(C)ccc1O)CC2 (centres undefined) = -1.98

Percent Effect measured on CC(C)NS(=O)(=O)c1cc(C(=O)O)cc(-c2ccc(CN(C)C)cc2)c1 = -4.61

Percent Effect measured on COc1ccccc1CNC(=O)Cn1ncc2c1c(C)nn2C = -9.43

Percent Effect measured on O=C(NCCC(=O)N1CCCCCC1)c1c(O)cc(F)cc1F = -20.3

Percent Effect measured on COc1ccc(CN(Cc2cncn2C)CC2CCCO2)c(OC)c1 (centres undefined) = -18.5

* * *

# Percent Effect listing for each entry below
- TESTED_TARGET: Tyrosyl-tRNA synthetase, putative (Trypanosoma cruzi (strain CL Brener)) (UniProt Q4DSP6)
- Sequence (whole entry): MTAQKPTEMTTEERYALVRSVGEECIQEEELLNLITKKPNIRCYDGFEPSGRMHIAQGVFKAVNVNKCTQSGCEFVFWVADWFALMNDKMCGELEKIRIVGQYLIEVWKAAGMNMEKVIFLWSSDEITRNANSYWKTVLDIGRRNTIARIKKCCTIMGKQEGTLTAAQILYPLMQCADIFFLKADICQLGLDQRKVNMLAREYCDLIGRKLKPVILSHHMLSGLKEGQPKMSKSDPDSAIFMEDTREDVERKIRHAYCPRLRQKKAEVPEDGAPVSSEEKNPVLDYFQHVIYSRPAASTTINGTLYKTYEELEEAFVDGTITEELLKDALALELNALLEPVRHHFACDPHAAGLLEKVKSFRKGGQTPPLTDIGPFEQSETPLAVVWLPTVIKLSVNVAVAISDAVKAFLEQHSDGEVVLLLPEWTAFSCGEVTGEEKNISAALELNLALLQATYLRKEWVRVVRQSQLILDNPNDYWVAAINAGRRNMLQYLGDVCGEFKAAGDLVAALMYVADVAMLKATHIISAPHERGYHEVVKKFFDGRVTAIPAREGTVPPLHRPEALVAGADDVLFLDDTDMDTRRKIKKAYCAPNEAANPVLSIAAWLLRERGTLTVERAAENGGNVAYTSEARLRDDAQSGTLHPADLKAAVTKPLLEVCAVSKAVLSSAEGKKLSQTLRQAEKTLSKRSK
- ASSAY_DETAILS: Trypanosoma cruzi tyrosyl tRNA synthetase (TcYRS) _High Tyrosine SOP
- Format: functional
- Set-up: scale not given: in the data most compounds retested in dose-response had high values
- CONDITION_PARAMETERS: 30 µM
Form entry: value (%) — number only.

COMPOUND: Cc1ccc(CN2CCn3c(C(=O)N(C)C)cnc3C2)s1
UNIT_SPEC: %
Percent Effect: 3.19
//
COMPOUND: CCOC(CC)C(=O)NCc1ccnc(Oc2ccc(F)cc2)c1 (configuration not stated)
UNIT_SPEC: %
Percent Effect: 7.94
//
COMPOUND: CN(Cc1ccncc1)CC(c1cccs1)N1CCOCC1 (configuration not stated)
UNIT_SPEC: %
Percent Effect: 5.94

Percent Effect measured on CS(=O)(=O)N1CCC2(CN(C(=O)c3cccnc3)C2)C1 = 4.17

Percent Effect measured on c1csc(-c2noc(CCCN3CCCC3Cn3cccn3)n2)c1 (configuration not stated) = 4.43

Percent Effect measured on Cc1ccccc1Oc1ncccc1CNS(C)(=O)=O = 5.38

Percent Effect measured on Cc1ccoc1C(=O)N1CCO[C@H]2[C@H](OCCN(C)C)CC[C@@H]21 = 2.08

Percent Effect measured on CCN1CCC(NC(=O)CN2CCCC2Cn2nc(C)cc2C)CC1 (configuration not stated) = 4.43

Percent Effect measured on CCc1nc(NS(=O)(=O)c2ccc(F)cc2C)no1 = 0.546

Percent Effect measured on O=C(NC1CCN(c2snc3ccccc23)CC1)C1CCC1 = 4.17

Percent Effect measured on Cc1nc(CN2CCC(C(=O)O)(n3ccc(-c4ccco4)n3)CC2)co1 = 1.04

Percent Effect measured on C=C(Cl)CN1CCC(C(=O)c2cc(F)ccc2F)CC1 = 0.49

Percent Effect measured on COc1cccc(C(=O)Nc2cc(CC(C)C)nn2C)c1 = 4.85

Percent Effect measured on N#Cc1ccccc1CN1C[C@@H]2CC[C@H](C1)N(Cc1cscn1)C2=O = 3.7

Percent Effect measured on O=C(c1cncc(Br)c1)N1CCC(O)(Cn2ccc3ccncc32)CC1 = 1.07

Percent Effect measured on N#CCSCCCN1CCN(C(=O)c2ccc(Cl)cc2)CC1 = -2.08

Percent Effect measured on O=C1CN(Cc2nnc(-c3ccc(Br)o3)o2)CCN1 = 7.37

Percent Effect measured on O=C(N1CCCC1)N1CCO[C@H]2[C@@H](Oc3ccccn3)CC[C@@H]21 = 4.25

Percent Effect measured on Cc1noc(-c2ccc(N3CCCC(C(=O)N4CCSCC4)C3)nc2)n1 (configuration not stated) = 1.07

Percent Effect measured on O=C(Cc1cccs1)N1C[C@@H]2COC[C@]2(COc2cccnc2)C1 = 7.92
